From: PubChem BioAssay AID1159580

For each entry below, report its normalized growth value.
assay: chemical genetic growth profiling, strain panel (AID 1159580);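 note: tested at 20 µM; growth read once vehicle control cultures reached saturation at 30 °C; 1 = growth at the plate median or of vehicle wells; lower values mean less growth of the strain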; conditions: S. cerevisiae deletion strains, growth OD, locus YJL095W, strain BCK1 (second series), hits give low values
In all, about 5,500 compounds went through this assay and about 2,000 (36%) were called active. Another 18% or so got no clear call; they are omitted. This is one part of the list.
Numbers only.

{"compound.structure.string": "Nc1ccc(C(=O)O)cc1", "normalized growth": 1}
{"compound.structure.string": "NC1=NCCN1CC(=O)O", "normalized growth": 1.02}

[Q] // lookup normalized growth for CC(=O)c1cc(CC=C(C)C)c(O)c(CC=C(C)C)c1
[A] 1.01
